NanoBRET Abs IC50 reference
# EXPERIMENTAL_SYSTEM: T1, B-cat-Halo (beta-catenin HaloTag fusion expressed in HEK293 cells) (UniProt P35222 1-781, HaloTag labelled with HaloTag NanoBRET 618 Ligand)
# T1 sequence (looked up): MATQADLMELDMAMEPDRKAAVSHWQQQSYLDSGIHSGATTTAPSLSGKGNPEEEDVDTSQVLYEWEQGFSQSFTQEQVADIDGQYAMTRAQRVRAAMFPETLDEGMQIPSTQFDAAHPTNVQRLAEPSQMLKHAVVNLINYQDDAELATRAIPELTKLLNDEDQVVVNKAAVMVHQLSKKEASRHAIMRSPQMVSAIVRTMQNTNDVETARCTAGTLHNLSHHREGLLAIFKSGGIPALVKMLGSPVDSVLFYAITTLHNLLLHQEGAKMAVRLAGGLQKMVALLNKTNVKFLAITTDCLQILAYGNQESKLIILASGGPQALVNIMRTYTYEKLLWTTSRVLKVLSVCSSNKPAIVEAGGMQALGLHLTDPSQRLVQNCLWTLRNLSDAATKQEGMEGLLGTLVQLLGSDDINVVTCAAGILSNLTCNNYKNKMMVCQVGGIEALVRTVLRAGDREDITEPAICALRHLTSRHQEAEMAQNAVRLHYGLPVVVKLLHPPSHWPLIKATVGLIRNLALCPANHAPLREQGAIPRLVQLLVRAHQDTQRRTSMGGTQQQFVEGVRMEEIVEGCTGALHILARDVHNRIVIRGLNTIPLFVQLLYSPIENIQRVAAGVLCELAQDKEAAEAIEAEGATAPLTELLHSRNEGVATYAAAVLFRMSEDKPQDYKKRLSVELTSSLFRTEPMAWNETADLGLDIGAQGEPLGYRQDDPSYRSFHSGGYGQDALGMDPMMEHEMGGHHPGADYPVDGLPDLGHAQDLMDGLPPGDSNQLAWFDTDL
# METHOD_NOTES: cell-based or functional assay
Starred links: 1 amine or outer side, 2 acyl side, 3 side chain; linkers in the order of their positions; H or OH if unused. Positions of bridges follow the written chain, without caps; N, C: chain ends. Non-standard residues stand in square brackets, D forms with d. Primed or numbered codes have the meaning given here. PyrS2″ = (S)-3-amino-1-((pent-4-en-1-yloxy)carbonyl)pyrrolidine-3-carboxylic acid (stapling residue), C=CCCCOC(=O)N1CC[C@@](N[*:1])(C(=O)[*:2])C1; PyrS2 = (S)-3-amino-1-((pent-4-en-1-yloxy)carbonyl)pyrrolidine-3-carboxylic acid, C=CCCCOC(=O)N1CC[C@@](N[*:1])(C(=O)[*:2])C1; B5(27) = 2-amino-2-(pent-4-en-1-yl)hept-6-enoic acid (two alkene side-chain arms), C=CCCCC(CCCC=C)(N[*:1])C(=O)[*:2]; MePpzAsn = (S)-2-amino-4-(4-methylpiperazin-1-yl)-4-oxobutanoic acid, CN1CCN(C(=O)C[C@H](N[*:1])C(=O)[*:2])CC1; F2PipNva = (S)-2-amino-5-(4,4-difluoropiperidin-1-yl)pentanoic acid, O=C([C@H](CCCN1CCC(F)(F)CC1)N[*:1])[*:2]; MorphAsn = (S)-2-amino-4-morpholino-4-oxobutanoic acid, O=C(C[C@H](N[*:1])C(=O)[*:2])N1CCOCC1; B5(3) = 2,2-bis(4-pentenyl)glycine (stitching residue), C=CCCCC(CCCC=C)(N[*:1])C(=O)[*:2]; MorphAbu = (S)-2-amino-4-morpholinobutanoic acid, O=C([C@H](CCN1CCOCC1)N[*:1])[*:2]; Phe(4-(3-Py)) = N[C@@H](Cc1ccc(-c2cccnc2)cc1)C(=O)O; Nva(5-morpholino) = N[C@@H](CCCN1CCOCC1)C(=O)O; Bta = N[C@@H](Cc1csc2ccccc12)C(=O)O; αAllylPro = C=CC[C@@]1(C(=O)O)CCCN1; tBuAla = CC(C)(C)C[C@H](N)C(=O)O; 3Thi = N[C@@H](Cc1ccsc1)C(=O)O; hSer = N[C@@H](CCO)C(=O)O

Example binders with recorded NanoBRET Abs IC50:
binder="Ac-[αAllylPro]D[tBuAla][B5(27)]DDA[F2PipNva]FL[PyrS2][3Thi][Bta]Q-NH2 (staple 1-4, 4-11) [I-1502]" result="> 20 µM"
binder="Ac-[αAllylPro]D[tBuAla][B5(3)]DD[Phe(4-(3-Py))]AFL[PyrS2″]F[Bta]Q-NH2 (staple 1-4, 4-11) [I-1489]" result="9.2 µM"

stdin: Returns the measured NanoBRET Abs IC50 for the input binder. Input: Ac-[αAllylPro]D[tBuAla][B5(27)]DDAAFL[PyrS2][3Thi][Bta][hSer]-NH2 (staple 1-4, 4-11) [I-1499]
stdout: 6.4 µM

stdin: Item: Ac-[αAllylPro]D[tBuAla][B5(27)]DDA[MorphAbu]FL[PyrS2][3Thi][Bta]Q-NH2 (staple 1-4, 4-11) [I-1504]
stdout: > 20 µM

stdin: Also Ac-[αAllylPro]D[tBuAla][B5(27)]DDAAFL[PyrS2][3Thi][Bta]F-NH2 (staple 1-4, 4-11) [I-1496] , if possible.
stdout: 9.4 µM

stdin: And what about the binder Ac-[αAllylPro]D[tBuAla][B5(3)]DDAAFL[PyrS2″][3Thi][Bta]N-NH2 (staple 1-4, 4-11) [I-1492] ?
stdout: 7.3 µM

stdin: Item: Ac-[αAllylPro]D[tBuAla][B5(3)]DDAAF[Nva(5-morpholino)][PyrS2″][3Thi][Bta]Q-NH2 (staple 1-4, 4-11) [I-1485]
stdout: 25.8 µM

stdin: Same lookup for Ac-[αAllylPro]D[tBuAla][B5(27)]DDA[Nva(5-morpholino)]FL[PyrS2][3Thi][Bta]Q-NH2 (staple 1-4, 4-11) [I-1501] , please.
stdout: > 20 µM

stdin: Also, Ac-[αAllylPro]D[tBuAla][B5(3)]DDAAF[MePpzAsn][PyrS2″][3Thi][Bta]Q-NH2 (staple 1-4, 4-11) [I-1488] please.
stdout: 30.3 µM

stdin: Proceed to Ac-[αAllylPro]D[tBuAla][B5(3)]DD[MePpzAsn]AFL[PyrS2″][3Thi][Bta]Q-NH2 (staple 1-4, 4-11) [I-1484]
stdout: > 20 µM

stdin: Please answer likewise for Ac-[αAllylPro]D[tBuAla][B5(27)]DDAAFL[PyrS2][3Thi][Bta]T-NH2 (staple 1-4, 4-11) [I-1494]
stdout: 14.7 µM

stdin: Further, for Ac-[αAllylPro]D[tBuAla][B5(27)]DDAAFL[PyrS2][3Thi][Bta]V-NH2 (staple 1-4, 4-11) [I-1495] ?
stdout: 23.9 µM

stdin: Proceed to Ac-[αAllylPro]D[tBuAla][B5(3)]DDAAF[MorphAsn][PyrS2″][3Thi][Bta]Q-NH2 (staple 1-4, 4-11) [I-1487]
stdout: 21.5 µM
